- Tested on: UO-31 renal
- PROCEDURE_SUMMARY: NCI-60 one-dose screen, 48 h (100 = growth as untreated, 0 = no growth, -100 = all killed)
- DETAILS: 10 µM unless noted
The panel holds about 83,000 compounds, 20% with a hit somewhere; the sample as a whole holds those more often.
Use class 1 when the recorded growth is no lower than 70%; use class 0 when it is lower.

Data request: Check this compound for growth at or above 70%: OC(c1ccccc1)c1nnc(SCc2ccccc2)n1Cc1ccccc1 (stereo unspecified)
Data returned: class 0

Data request: And then COc1ccc(-n2c(C(O)c3ccccc3)n[nH]c2=S)cc1 (stereo unspecified) , what is it?
Data returned: class 1

Data request: And then COc1ccc(C2=NN(/C=C3\SC(=O)NC3=Nc3ccc(F)cc3)C(c3ccc(F)cc3)C2)cc1 (stereo unspecified) , what is it?
Data returned: class 1

Data request: And then Cc1ccc(C(=O)c2oc3ccc4c(C)cc(=O)oc4c3c2C)cc1 , what is it?
Data returned: class 0

Data request: And then CC1(O)COCCCCOc2c(CN)cccc2NC(=O)c2nc(cnc2N)-c2ccc(cc2)S(=O)(=O)C(C)(C)C1 (stereo unspecified) , what is it?
Data returned: class 0

Data request: And then CN(C)CCCNCc1ccc(-c2ccc(F)c(Cl)c2)o1 , what is it?
Data returned: class 0

Data request: And then Clc1ccc(Nc2nnc(-c3ccc4c(c3)OCO4)o2)cc1 , what is it?
Data returned: class 1

Data request: And then COc1ccc(/C=C2\NC(=O)NC2=O)cc1O , what is it?
Data returned: class 1

Data request: And then COc1ccc(-c2nocc2-c2cccs2)cc1 , what is it?
Data returned: class 1

Data request: And then O=C(Cn1cc(COc2ncnc3c2cnn3-c2ccccc2)nn1)Nc1ccccn1 , what is it?
Data returned: class 0

* * *

- Tested on: HCT-116 colon
- PROCEDURE_SUMMARY: NCI-60 one-dose screen, 48 h
- DETAILS: 10 µM unless noted
The panel holds about 83,000 compounds, 20% with a hit somewhere; the sample as a whole holds those more often. The source made the active and inactive calls. Rule for the calls: active = growth percent below 10; inactive = the rest.
The reply should name one outcome from TRUE for active, FALSE for inactive

Data request: Which outcome was assigned to COc1ccc(/C=C2\SC(=Nc3ccccc3)NC2=O)cc1 in this test?
Data returned: TRUE

Data request: And then Cc1nc2ccccc2c(/C=C/c2ccc(F)cc2)c1C(N)=O , what is it?
Data returned: FALSE

Data request: And then Cc1cccc2c(=O)c3c(sc12)c(NCCCNCCO)nc1ccccc13 , what is it?
Data returned: TRUE

Data request: And then Cc1ccc2[nH]c(=O)cc(-n3nncc3Cn3c4ccccc4c4ccccc43)c2c1 , what is it?
Data returned: FALSE

Data request: And then COCCN(C(=O)Cc1cccs1)C(C(=O)NCc1ccc(OC)cc1)c1ccc(C(C)C)cc1 (stereo unspecified) , what is it?
Data returned: FALSE

Data request: And then COc1ccc(N2C(=O)CC(c3cc(OC)c(OC)c(OC)c3)C3C2=NC(=O)N3C)cc1 (stereo unspecified) , what is it?
Data returned: FALSE

Data request: And then O=c1c(-c2nc3ccccc3[nH]2)cc2ccccc2n1Cc1cn(Cc2ccccc2Cl)nn1 , what is it?
Data returned: FALSE

Data request: And then O=C(NCCCN1CCC(N2CCCCC2)CC1)C1=Cc2cc(Br)ccc2OC1 , what is it?
Data returned: FALSE

Data request: And then COc1ccccc1CNC(=O)C1c2ccccc2C(=O)N(CC(C)C)C1c1cccs1 (stereo unspecified) , what is it?
Data returned: FALSE

Data request: And then COc1ccc(-n2c(C(O)c3ccccc3)n[nH]c2=S)cc1 (stereo unspecified) , what is it?
Data returned: FALSE

Data request: And then COc1cc2nc(NC3CCCC3)nc(NC3CCN(C(C)C)CC3)c2cc1OC , what is it?
Data returned: FALSE

Data request: And then O=c1cc(NC2CCN(CCCc3ccccc3)CC2)c2cc(Cl)ccc2o1 , what is it?
Data returned: TRUE

Data request: And then Cc1nc2ccccc2c(/C=C/c2ccccc2)c1C(=O)/C=C/c1ccc(Cl)cc1 , what is it?
Data returned: TRUE

Data request: And then COc1ccc(-c2cn[nH]c2-c2ccc(OC)c(O)c2)cc1 , what is it?
Data returned: FALSE

Data request: And then Brc1ccc(Oc2ccc(Nc3ncnc4onc(-c5ccccc5)c34)cc2)cc1 , what is it?
Data returned: FALSE

Data request: And then C#CCn1cc(C=C2C(=O)N(C)C(=O)N(C)C2=O)c2cc(Cl)ccc21 , what is it?
Data returned: FALSE

Data request: And then O=C1c2cc(Cl)ccc2Oc2cc([N+](=O)[O-])ccc2N1c1ccc(F)cc1F , what is it?
Data returned: FALSE

Data request: And then CCn1c(-c2nonc2Nc2ccc(OC)cc2)nc2ccccc21 , what is it?
Data returned: FALSE

Data request: And then CNC(=O)c1cc(Oc2ccc(CC(=O)Nc3cc(C(C)(C)C)cn3C)cc2)ccn1 , what is it?
Data returned: FALSE

Data request: And then CCOC(=O)c1ccc2[nH]c(-c3ccccc3)cc(=O)c2c1 , what is it?
Data returned: FALSE

Data request: And then CCCCCCc1cc2cc(-c3csc(/C=C/c4ccccc4)n3)c(=O)oc2cc1O , what is it?
Data returned: FALSE

Data request: And then CCOC(=O)c1sc(-c2ccc(OS(=O)(=O)c3ccc(Br)s3)c(C=O)c2)nc1C , what is it?
Data returned: TRUE

Data request: And then O=c1c(-c2nc3ccccc3[nH]2)cc2ccccc2n1Cc1cn(Cc2ccc(F)cc2)nn1 , what is it?
Data returned: TRUE

Data request: And then O=C(c1ccccc1)N(CCc1ccc(Cl)cc1)C(=S)N(C(=O)c1ccccc1)c1ccccc1 , what is it?
Data returned: FALSE

Data request: And then CC(=O)n1cc(-c2c[nH]c3ccccc23)c(-c2ccc(Cl)cc2)n1 , what is it?
Data returned: FALSE

Data request: And then COC(=O)/C(CCC=C(C)C)=C1\[C@@H](OC(C)=O)C[C@@]2(C)[C@H]1C[C@@H](O)[C@H]1[C@@]3(C)CC[C@H](NC(=O)c4cnccn4)[C@@H](C)[C@@H]3CC[C@@]12C , what is it?
Data returned: FALSE

Data request: And then O=C1C(=O)c2c(ccc3ccccc23)-c2ccccc21 , what is it?
Data returned: TRUE

Data request: And then CCOc1ccccc1CN1CCc2nc3cc(C(C)(C)C)[nH]n3c(=O)c2C1 , what is it?
Data returned: FALSE

Data request: And then Cc1sc2ncnc(Sc3nc4ccccc4[nH]3)c2c1C , what is it?
Data returned: TRUE

Data request: And then O=c1oc2ccc(Cl)cc2c(=O)n1-c1cc(C(F)(F)F)cc(C(F)(F)F)c1 , what is it?
Data returned: TRUE

Data request: And then O=C(N/N=C/c1ccccc1O)C(=O)Nc1ccc(F)cc1 , what is it?
Data returned: FALSE

Data request: And then COc1cc(/C=C/C(=O)N2c3ccccc3CC2C)c(OC)c2c1OCO2 (stereo unspecified) , what is it?
Data returned: FALSE

Data request: And then CCOC(=O)c1ccc(N=Cc2sc(=O)[nH]c2O)cc1 , what is it?
Data returned: FALSE

Data request: And then Cn1nc(C(C)(C)C)cc1NC(=O)Cc1ccc(/C=C2\C(=O)Nc3ccccc32)cc1 , what is it?
Data returned: FALSE

Data request: And then O=C(Nc1ccc(N2CCNCC2)cc1)c1[nH]ncc1Nc1cc(Oc2ccccc2)ncn1 , what is it?
Data returned: TRUE

Data request: And then O=c1cc(-c2ccccc2)oc2cc(OCc3cn(Cc4ccc(F)cc4)nn3)cc(OCc3cn(Cc4ccc(F)cc4)nn3)c12 , what is it?
Data returned: FALSE

Data request: And then O=c1oc2ccc(Br)cc2c(=O)n1-c1ccc(Cl)cc1F , what is it?
Data returned: TRUE

Data request: And then CN1CCN(Cc2ccc(C(=O)Nc3cncc(C#Cc4cnc(N)c5ccccc45)c3)cc2C(F)(F)F)CC1 , what is it?
Data returned: TRUE

Data request: And then NCCOc1ccccc1/C=C1\c2ccccc2-c2ccc([N+](=O)[O-])cc21 , what is it?
Data returned: TRUE

Data request: And then O=C1CCC(N2C(=O)c3cccc(NCCCCCCOc4ccc(Nc5nccc(Nc6ccccc6)n5)cc4)c3C2=O)C(=O)N1 (stereo unspecified) , what is it?
Data returned: FALSE

Data request: And then O=C(O)CCCN1C(=O)C2C3CCC(C3)C2C1=O (stereo unspecified) , what is it?
Data returned: FALSE

Values from PubChem BioAssay (NCI)
